biological target: T1, human CXCR4-enriched lipoparticles (Homo sapiens, UniProt P61073); experiment: Biosensor affinity measurement of Fabs on CXCR4-enriched lipoparticles; type: binding; conditions: Fab; kinetic titration
T1 construct: purchased Integral Molecular, Philadelphia Pa; LEV101
T1 sequence (P61073 whole entry): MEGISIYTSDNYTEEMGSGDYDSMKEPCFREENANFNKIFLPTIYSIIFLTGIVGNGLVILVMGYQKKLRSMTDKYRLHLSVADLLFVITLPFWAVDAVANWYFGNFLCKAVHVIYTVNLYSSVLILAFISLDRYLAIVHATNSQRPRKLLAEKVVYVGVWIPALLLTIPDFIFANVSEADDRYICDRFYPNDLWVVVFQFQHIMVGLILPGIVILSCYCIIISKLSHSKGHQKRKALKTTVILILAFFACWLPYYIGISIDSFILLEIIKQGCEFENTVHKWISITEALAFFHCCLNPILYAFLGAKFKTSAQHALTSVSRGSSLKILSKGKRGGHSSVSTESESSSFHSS

| molecule | unit-tag | Kd |
| --- | --- | --- |
| h3G10.A57 VH/h3G10.A58B VL: Fab; VH SEQ ID NO:23, VL SEQ ID NO:73 (antibody, V domains shown, Fab) VH: EVQLVESGGGLVQPGGSLRLSCAASGFTFSDYYMSWVRQAPGKGLEWVGFIRHKANFYTTEYSTSVKGRFTISRDDSKNSLYLQMNSLKTEDTAVYYCARDLPGFAYWGQGTLVTVSS VL: DIVMTQSPDSLAVSLGERATINCKSSQSLFNSHTRKNYLAWYQQKPGQPPKLLIYWASARGSGVPDRFSGSGSGTDFTLTISSLQAEDVAVYYCKQSFNLRTFGGGTKVEIK | s⁻¹ | 0.000515 |
| h3G10.A57 VH/h3G10 VL: Fab; VH SEQ ID NO:23, VL SEQ ID NO:47 (antibody, V domains shown, Fab) VH: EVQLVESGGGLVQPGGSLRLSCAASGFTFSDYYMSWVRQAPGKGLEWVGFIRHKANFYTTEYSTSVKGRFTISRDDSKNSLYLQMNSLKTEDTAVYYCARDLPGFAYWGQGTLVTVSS VL: DIVMTQSPDSLAVSLGERATINCKSSQSLFNSRTRKNYLAWYQQKPGQPPKLLIYWASARESGVPDRFSGSGSGTDFTLTISSLQAEDVAVYYCKQSFNLRTFGGGTKVEIK | s⁻¹ | 0.00143 |
| h3G10.1.91 VH/h3G10.2.72 VL: Fab; VH SEQ ID NO:33, VL SEQ ID NO:49 (antibody, V domains shown, Fab) VH: EVQLVESGGGLVQPGGSLRLSCAASGFTFSDYYMSWVRQAPGKGLEWVGFIRHKANFETTEYSTSVKGRFTISRDDSKNSLYLQMNSLKTEDTAVYYCARDLPGFAYWGQGTLVTVSS VL: DIVMTQSPDSLAVSLGERATINCKSSQSLFNSRTRKNYLAWYQQKPGQPPKLLIYWASARESGVPDRFSGSGSGTDFTLTISSLQAEDVAVYYCKQSFRLRTFGGGTKVEIK | s⁻¹ | 0.00049 |
| h3G10.2.37 VH/h3G10.2.72 VL: Fab; VH SEQ ID NO:35, VL SEQ ID NO:49 (antibody, V domains shown, Fab) VH: EVQLVESGGGLVQPGGSLRLSCAASGFTFSDYYMSWVRQAPGKGLEWVGFIRHKANFYTREYSTSVKGRFTISRDDSKNSLYLQMNSLKTEDTAVYYCARDLPGFAYWGQGTLVTVSS VL: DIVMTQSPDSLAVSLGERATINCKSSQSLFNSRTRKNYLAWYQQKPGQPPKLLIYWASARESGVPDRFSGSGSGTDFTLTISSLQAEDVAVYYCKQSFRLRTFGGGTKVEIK | s⁻¹ | 0.0008 |
